Where these numbers come from: patent US20230131402A1

experiment: in vivo; details: Sprague Dawley, rat, po, 10 mg/kg, AUClast
assay-endpoint: AUC(0-t) (ng·h/mL)
Give bare numbers, in ng·h/mL.

Ask | Indicate its recorded AUC(0-t); the molecule in question is C[C@@H](O)[C@H](N)C(=O)N1CCN(C)CC12CNC2=O (single isomer, unassigned)
Reply | 568

====

test: IV pharmacokinetics; format: in vivo, Sprague Dawley rats; conditions: Sprague Dawley, rat, in vivo, iv, 2 mg/kg, normal saline (compounds marked * in 1% NMP and 99% normal saline), read-out: Vss
assay-endpoint: Vd
Number plus unit, in that order.

Example cases with answers are listed next.
molecule	result
O=C1NCCC12CNCCN2 (centres unmarked) [ES-302]	1.33 L/kg
CN1CCN(Cc2ccccc2)C2(CNC2=O)C1 (single isomer, unassigned) [EG-2]	1.87 L/kg

For each listed entry, give its Vd.
1. O=C1NCC12CNCCN2Cc1ccccc1 (single isomer, unassigned) [ED-1]
2. CC(C)(C)OC(=O)N1CCNC2(C1)CN(CC(N)=O)C2=O (centres unmarked) [ER-141]
3. CC(C)C(=O)N1CCN(Cc2ccccc2)C2(CCNC2=O)C1 (centres unmarked) [ES-321]

Reply |
["1.88 L/kg", "0.7 L/kg", "0.71 L/kg"]

====

experiment: Oral pharmacokinetics (plasma, brain, CSF); details: Sprague Dawley, rat, plasma, po, 10 mg/kg, Tmax, per os, normal saline (compounds marked * in 1% NMP and 99% normal saline)
What Tmax was measured for each of the following?
Answers are plain numbers, in min.

Worked cases, Tmax given:
molecule	assay-endpoint	unit-label	numeric-result
CC(=O)N1CCN(Cc2ccccc2)C2(CCNC2=O)C1 (stereo not drawn)	Tmax	min	19.8
CN1CCN(C(=O)OC(C)(C)C)CC12CN(CC(N)=O)C2=O (stereo not drawn)	Tmax	min	30
CC(C)C(=O)N1CCN(Cc2ccccc2)C2(CCNC2=O)C1 (stereo not drawn)	Tmax	min	15

List reported Tmax for each of these molecules:
1. CN1CCN(Cc2ccccc2)C2(CCNC2=O)C1 (stereo not drawn)
2. C[C@@H](O)[C@H](N)C(=O)N1CCNC2(CCNC2=O)C1 (stereo partly drawn)

Reply |
1. 15
2. 60

Ask | State its Tmax for this molecule: CC(C)(C)OC(=O)N1CCNC2(C1)CN(CC(N)=O)C2=O (stereo not drawn)
Reply | 49.8

====

Would you kindly list half-life for each of these molecules?
Experiment: IV pharmacokinetics
Type: in vivo, Sprague Dawley rats
Conditions: Sprague Dawley, rat, in vivo, iv, 2 mg/kg, normal saline (compounds marked * in 1% NMP and 99% normal saline)
Text: The table below summarizes the results of the IV pharmacokinetics.
Give bare numbers, in min.

Solved entries (count: 2):
molecule	numeric-result
O=C1NCC12CNCCN2Cc1ccccc1 (single isomer, unassigned)	47.4
C[C@@H](O)[C@H](N)C(=O)N1CCNC2(CCNC2=O)C1 (some centres unmarked)	820

Kindly give each listed record's half-life.
1. CN1CCN(C(=O)OC(C)(C)C)CC12CN(CC(N)=O)C2=O (centres unmarked)
2. CC(=O)N1CCN(Cc2ccccc2)C2(CCNC2=O)C1 (centres unmarked)
3. C[C@@H](O)[C@H](N)C(=O)N1CCNC2(CNC2=O)C1 (single isomer, unassigned)
4. CC(C)C(=O)N1CCN(Cc2ccccc2)C2(CCNC2=O)C1 (centres unmarked)
5. O=C1NCCC12CNCCN2 (centres unmarked)
6. CN1CCN(Cc2ccccc2)C2(CCNC2=O)C1 (centres unmarked)

Reply |
1: 31.2; 2: 279; 3: 48; 4: 10.2; 5: 142; 6: 138

====

assay: Oral pharmacokinetics (plasma, brain, CSF); settings: Sprague Dawley, rat, plasma, po, 10 mg/kg, Cmax, per os, normal saline (compounds marked * in 1% NMP and 99% normal saline)
assay-endpoint: Cmax

Worked examples, 4 compounds total:
compound	result
CN1CCN(C(=O)OC(C)(C)C)CC12CN(CC(N)=O)C2=O (stereo not shown) [ER-117]	1540 ng/mL
CC(C)C(=O)N1CCN(Cc2ccccc2)C2(CCNC2=O)C1 (stereo not shown) [ES-321]	795 ng/mL
O=C1NCC12CNCCN2Cc1ccccc1 (single isomer, unassigned) [ED-1]	2800 ng/mL
CN1CCN(Cc2ccccc2)C2(CCNC2=O)C1 (stereo not shown) [ES-316]	2770 ng/mL

I have 6 compounds here; please give me Cmax for each one.
1. CC(=O)N1CCN(Cc2ccccc2)C2(CCNC2=O)C1 (stereo not shown) [ES-319]
2. C[C@@H](O)[C@H](N)C(=O)N1CCN(Cc2ccccc2)C2(CNC2=O)C1 (single isomer, unassigned) [EL-1]
3. O=C1NCCC12CNCCN2 (stereo not shown) [ES-302]
4. C[C@@H](O)[C@H](N)C(=O)N1CCNC2(CNC2=O)C1 (single isomer, unassigned) [EK-1]
5. C[C@@H](O)[C@H](N)C(=O)N1CCNC2(CCNC2=O)C1 (stereo partly shown) [ES-336]
6. CC(C)(C)OC(=O)N1CCNC2(C1)CN(CC(N)=O)C2=O (stereo not shown) [ER-141]

Reply |
["4760 ng/mL", "4980 ng/mL", "340 ng/mL", "1620 ng/mL", "2690 ng/mL", "962 ng/mL"]

====

experiment: Oral pharmacokinetics (plasma, brain, CSF); conditions: rat, per os, 10 mg/kg, normal saline (compounds marked * in 1% NMP and 99% normal saline)
assay-endpoint: Tmax (min)
Numbers only, in min.

Below are worked cases with known answers.
molecule	Tmax / min
CN1CCN(Cc2ccccc2)C2(CNC2=O)C1 (single isomer, unassigned)	15
C[C@@H](O)[C@H](N)C(=O)N1CCNC2(CNC2=O)C1 (single isomer, unassigned)	60
O=C1NCC12CNCCN2Cc1ccccc1 (single isomer, unassigned) [ED-1]	40.2

Then this molecule:
Ask | Query Tmax for O=C1NCC12CNCCN2Cc1ccccc1 (single isomer, unassigned) [ED-2]
Reply | 15

====

target: NMDAR2A (Homo sapiens); construct: expressed in transfected cells; host or cells: HEK cells (membrane extract); assay: [3H]MK-801 binding, NMDAR2A expressing HEK cell membranes; assay type: biochemical; settings: 50 μM glutamate
Sequence (Q12879 23-1464, species assumed, other chains not shown): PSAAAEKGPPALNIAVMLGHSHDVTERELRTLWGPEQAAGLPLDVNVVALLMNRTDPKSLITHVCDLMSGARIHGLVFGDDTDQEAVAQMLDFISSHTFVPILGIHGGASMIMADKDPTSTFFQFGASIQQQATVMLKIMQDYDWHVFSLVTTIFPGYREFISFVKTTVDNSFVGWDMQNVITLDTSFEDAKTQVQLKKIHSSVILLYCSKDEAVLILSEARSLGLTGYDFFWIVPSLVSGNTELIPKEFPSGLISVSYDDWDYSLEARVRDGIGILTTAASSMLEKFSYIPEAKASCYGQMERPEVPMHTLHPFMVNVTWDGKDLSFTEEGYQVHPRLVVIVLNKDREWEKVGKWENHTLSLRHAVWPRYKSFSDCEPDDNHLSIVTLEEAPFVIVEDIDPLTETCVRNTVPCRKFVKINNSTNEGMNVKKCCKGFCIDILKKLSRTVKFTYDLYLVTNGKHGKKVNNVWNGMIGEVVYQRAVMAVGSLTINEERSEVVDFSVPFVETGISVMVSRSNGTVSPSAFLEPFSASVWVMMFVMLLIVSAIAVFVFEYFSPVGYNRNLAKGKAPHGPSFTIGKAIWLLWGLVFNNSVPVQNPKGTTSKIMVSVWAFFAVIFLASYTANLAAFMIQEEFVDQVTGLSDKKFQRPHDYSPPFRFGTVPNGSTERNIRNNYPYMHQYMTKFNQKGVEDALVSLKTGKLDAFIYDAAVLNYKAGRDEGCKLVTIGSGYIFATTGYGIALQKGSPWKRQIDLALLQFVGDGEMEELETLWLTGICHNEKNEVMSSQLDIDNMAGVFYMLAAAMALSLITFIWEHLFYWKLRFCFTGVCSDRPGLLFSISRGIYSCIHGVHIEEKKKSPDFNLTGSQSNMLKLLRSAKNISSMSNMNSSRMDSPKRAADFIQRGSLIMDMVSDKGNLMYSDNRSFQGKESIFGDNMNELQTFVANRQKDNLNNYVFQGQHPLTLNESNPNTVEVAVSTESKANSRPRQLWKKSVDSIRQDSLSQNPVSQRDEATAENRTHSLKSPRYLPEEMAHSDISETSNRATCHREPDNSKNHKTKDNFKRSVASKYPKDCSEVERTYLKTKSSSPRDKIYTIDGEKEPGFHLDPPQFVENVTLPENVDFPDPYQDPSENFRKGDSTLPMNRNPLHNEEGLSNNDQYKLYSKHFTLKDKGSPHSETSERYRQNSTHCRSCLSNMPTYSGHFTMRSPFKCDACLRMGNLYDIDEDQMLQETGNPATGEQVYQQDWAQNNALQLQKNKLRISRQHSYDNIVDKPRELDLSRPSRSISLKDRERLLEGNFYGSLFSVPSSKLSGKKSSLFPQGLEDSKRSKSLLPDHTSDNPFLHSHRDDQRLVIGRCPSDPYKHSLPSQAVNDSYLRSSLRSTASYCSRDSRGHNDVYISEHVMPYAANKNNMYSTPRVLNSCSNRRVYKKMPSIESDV
assay-endpoint: NMDAR2A A: % maximal [3H]MK-801 binding relative to 1 mM glycine

Below, 5 compounds whose answers are already recorded.
compound	result
CC(C)(C)OC(=O)N1CCNC2(CNC2=O)C1 (single isomer, unassigned)	+ (<100%=+)
C[C@@H](O)[C@H](N)C(=O)N1CCNC2(CNC2=O)C1 (single isomer, unassigned)	+ (<100%=+)
O=C1NCC12CN(Cc1ccccc1)CCN2Cc1ccccc1 (single isomer, unassigned) [EA-1]	+ (<100%=+)
CC(=O)N1CCN(Cc2ccccc2)C2(CCNC2=O)C1 (stereo not drawn) [ES-320]	− (−=0)
CC(C)(C)OC(=O)N1CCNC2(C1)CN(CC(N)=O)C2=O (stereo not drawn) [ER-142]	+ (<100%=+)

// for each compound in input: emit NMDAR2A A: % maximal [3H]MK-801 binding relative to 1 mM glycine
1. CC(C)(C)OC(=O)N1CCNC2(CCNC2=O)C1 (single isomer, unassigned) [EN]
2. CN1CCNC2(CNC2=O)C1 (stereo not drawn)
3. O=C1NCC12CN(Cc1ccccc1)CCN2Cc1ccccc1 (single isomer, unassigned) [EA-2]
4. CN1CCN(C(=O)OC(C)(C)C)CC12CN(CC(N)=O)C2=O (stereo not drawn)
5. CC(C)C(=O)N1CCN(Cc2ccccc2)C2(CCNC2=O)C1 (stereo not drawn) [ES-322]
6. CC(C)(C)OC(=O)N1CCN(C(=O)OC(C)(C)C)C2(CNC2=O)C1 (single isomer, unassigned)
7. CC(C)(C)OC(=O)N1CCNC2(C1)CN(CC(N)=O)C2=O (stereo not drawn) [ER-141]

Reply |
− (−=0)
+ (<100%=+)
− (−=0)
− (−=0)
− (−=0)
− (−=0)
− (−=0)

State the recorded NMDAR2A A: % maximal [3H]MK-801 binding relative to 1 mM glycine for every item in the following list.
1. CN1CCN(Cc2ccccc2)C2(CNC2=O)C1 (single isomer, unassigned) [EG-2]
2. CC(=O)N1CCN(Cc2ccccc2)C2(CCNC2=O)C1 (stereo not drawn) [ES-319]

Reply |
− (−=0)
+ (<100%=+)

Each compound below has a reported value. Please supply its NMDAR2A A: % maximal [3H]MK-801 binding relative to 1 mM glycine.
1. CC(C)(C)OC(=O)N1CCNC2(CCNC2=O)C1 (single isomer, unassigned) [EM]
2. C[C@@H](O)[C@H](N)C(=O)N1CCNC2(CCNC2=O)C1 (stereo partly drawn)

Reply |
1: + (<100%=+); 2: + (<100%=+)

====

Could you please report measured bioavailability for the items listed next?
experiment: Oral pharmacokinetics (plasma, brain, CSF); conditions: Sprague Dawley, rat, plasma, po, 10 mg/kg, % F, per os

The examples below pair each entry with its known result.
molecule	bioavailability
CN1CCN(Cc2ccccc2)C2(CCNC2=O)C1 (stereo not drawn) [ES-316]	55%
CC(C)C(=O)N1CCN(Cc2ccccc2)C2(CCNC2=O)C1 (stereo not drawn) [ES-321]	16%
O=C1NCCC12CNCCN2 (stereo not drawn) [ES-302]	12%
C[C@@H](O)[C@H](N)C(=O)N1CCNC2(CNC2=O)C1 (single isomer, unassigned) [EK-1]	51%
C[C@@H](O)[C@H](N)C(=O)N1CCN(Cc2ccccc2)C2(CNC2=O)C1 (single isomer, unassigned) [EL-1]	90%

Hi there! I need bioavailability for each item below, if you can.
1. C[C@@H](O)[C@H](N)C(=O)N1CCNC2(CCNC2=O)C1 (stereo partly drawn) [ES-336]
2. CC(=O)N1CCN(Cc2ccccc2)C2(CCNC2=O)C1 (stereo not drawn) [ES-319]
3. CC(C)(C)OC(=O)N1CCNC2(C1)CN(CC(N)=O)C2=O (stereo not drawn) [ER-141]
4. CN1CCN(C(=O)OC(C)(C)C)CC12CN(CC(N)=O)C2=O (stereo not drawn) [ER-117]

Reply |
1. 44%
2. 72%
3. 31%
4. 69%
